Each recorded value in this set is attributed to PubChem BioAssay (NCATS).

assay: qHTS assay for cell viability of HEK293 cells (AID 743288); settings: ATP luminescence (CellTiter-Glo), 18 h, hits give low values; also: % is scaled to controls: 0 for no effect and ±100 for the full control effect; nearly all actives have a fitted effect of over 50% in size
Records with an inconclusive call do not appear.
Answer each item with its documented max response.
Reply numerically in %, unit not repeated.

# lookup: max response of Nc1cc(Cl)c([N+](=O)[O-])cc1O
-3.32

What measured max response goes with C=C(C)C(=O)OCCCCCC ?
6.76

What does the record list as max response for CCCCC(CC)CO (stereo not given) ?
-2.63

Fill in: max response of O=C1NC(=O)c2cc([N+](=O)[O-])ccc21 is ___
-4.71

Quick one: max response of CN(C)CCCNCCCN ?
-0.667
